Reported growth is given for each of the following compounds.
system: SR leukemia; assay: NCI-60 one-dose screen, 48 h (100 = growth as untreated, 0 = no growth, -100 = all killed); conditions: 10 µM unless noted
About 83,000 compounds went through this panel and 20% of them were active in at least one assay; those are over-represented in the sample as a whole.
Observed Property: growth (%)

[[record]]
compound = "COc1cc(-c2nn(-c3ccc(NC(=O)c4ccc(Cl)c(Cl)c4)cc3)cc2-c2ccncc2)ccc1Cl"
observed_property = "growth"
quantitative_result = 11.3

[[record]]
compound = "CC(=O)Nc1ccc(S(=O)(=O)Cl)cc1"
observed_property = "growth"
quantitative_result = 86.8

[[record]]
compound = "C#CCCCCCCC[C@@H]1OC(=O)[C@H]([C@@H](C)CC)NC(=O)[C@@H]([C@@H](C)CC)NC(=O)CC(=O)[C@@H]1C"
observed_property = "growth"
quantitative_result = 91.2

[[record]]
compound = "CCOC(=O)/C(C#N)=C(/CC)OCC"
observed_property = "growth"
quantitative_result = 85.6

[[record]]
compound = "C[C@@H](c1ccc2c(c1)[nH]c1ccc(Cl)cc12)c1nc2ccccc2[nH]1"
observed_property = "growth"
quantitative_result = 74.3

[[record]]
compound = "CC(O)CCC(C)[N+](=O)[O-] (stereo not given)"
observed_property = "growth"
quantitative_result = 95.8

[[record]]
compound = "COc1ccc(CN2C(=O)/C(=C\\C(=O)c3ccc(OCCN4CCCCC4)cc3)c3ccccc32)cc1"
observed_property = "growth"
quantitative_result = -22.2

[[record]]
compound = "c1cc[c]([Bi]([c]2ccccc2)[c]2ccccc2)cc1"
observed_property = "growth"
quantitative_result = 102

[[record]]
compound = "COC(=O)c1ccc2[nH]c(O)c(C(=Nc3ccc(N(C)C(=O)CN4CCN(C)CC4)cc3)c3ccc([N+](=O)[O-])cc3)c2c1"
observed_property = "growth"
quantitative_result = 5.48

[[record]]
compound = "O=S(=O)(O)CCI"
observed_property = "growth"
quantitative_result = 116

